Data origin, for the record: PubChem BioAssay (Tox21)

# TGT: Estrogen receptor beta (Homo sapiens)
# ASSAY_PROCEDURE: qHTS assay to identify small molecule agonists of the estrogen receptor beta (ER-beta) signaling pathway (AID 1259377)
# CONDITIONS_USED: ER-beta-UAS-bla HEK293T, beta-lactamase FRET ratio, 16 h; series mostly up to 92.4 µM
# Source text: U.S. Tox21 Program National Center for Advancing Translational Sciences [NCATS] NIH Chemical Genomics Center [NCGC] U.S. Environmental Protection Agency [EPA] National Institutes of Environmental Health Sciences [NIEHS] National Toxicology Program [NTP] U.S. Food and Drug Administration [FDA] Tox21 Assay Overview: Estrogen receptor (ER), a nuclear hormone receptor, plays an important role in development, metabolic homeostasis and reproduction. […]
Results filed as inconclusive are left out. Active and inactive are the calls of the source. Calls come from the whole dose curve; as a rule, active = well fitted activation curve with a large enough effect in the signal ratio in the repeat runs (not every such curve was filed as active); inconclusive = weak or mixed curves, or effect the other way; inactive = flat fitted curve, though single readings scatter; the % refers to the signal ratio.
REPORTED_METRIC: activation

COMPOUND | TGT | REPORTED_METRIC | EXPERIMENTAL_VALUE
CCSC(=O)N(CC)CC | Estrogen receptor beta (Homo sapiens) | activation | inactive
O=C(O)c1cccc(C[C@@H]2COc3ccc(OCc4nc5cc(F)ccc5s4)cc3[C@@H]2O)c1 | Estrogen receptor beta (Homo sapiens) | activation | inactive
CC(C)(C)C(O)/C=C/c1ccc2c(c1)OCO2 (configuration not stated) | Estrogen receptor beta (Homo sapiens) | activation | inactive
CCOC(=O)C(C)O (configuration not stated) | Estrogen receptor beta (Homo sapiens) | activation | inactive
CCCCCCCC/C=C\CCCCCCCC(=O)OCCO | Estrogen receptor beta (Homo sapiens) | activation | inactive
CC(C)C(=O)OCCOc1ccccc1 | Estrogen receptor beta (Homo sapiens) | activation | inactive
NC(=O)CCCCC(N)=O | Estrogen receptor beta (Homo sapiens) | activation | inactive

---

# TGT: Cytochrome P450 2C9 (Homo sapiens) (UniProt P11712)
# Sequence (P11712 whole entry, looked up): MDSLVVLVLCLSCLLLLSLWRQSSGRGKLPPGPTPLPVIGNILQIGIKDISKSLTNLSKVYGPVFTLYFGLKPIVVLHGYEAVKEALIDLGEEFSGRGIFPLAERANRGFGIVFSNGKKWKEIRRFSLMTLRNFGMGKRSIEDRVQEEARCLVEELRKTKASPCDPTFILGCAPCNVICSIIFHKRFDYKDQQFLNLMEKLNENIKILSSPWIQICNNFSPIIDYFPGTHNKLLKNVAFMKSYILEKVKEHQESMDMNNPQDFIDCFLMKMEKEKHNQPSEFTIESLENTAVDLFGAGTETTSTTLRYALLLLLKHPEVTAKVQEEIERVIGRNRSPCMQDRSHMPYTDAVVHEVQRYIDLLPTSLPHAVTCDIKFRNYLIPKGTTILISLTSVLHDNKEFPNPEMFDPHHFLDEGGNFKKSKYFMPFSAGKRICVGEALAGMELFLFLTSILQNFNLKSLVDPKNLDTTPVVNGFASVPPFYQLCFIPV
# ASSAY_PROCEDURE: Cytochrome P450 Family 2 Subfamily C Member 9 (CYP2C9) small molecule antagonists: luciferase reporter qHTS assay (AID 1671198); note: nearly all actives have a fitted effect of over 50% in size
# CONDITIONS_USED: P450-Glo CYP2C9 enzyme assay, luciferin luminescence; series mostly up to 115 µM
Results filed as inconclusive are left out. The source made the active and inactive calls. The call rests on the fitted dose curve; in most records, active means well fitted inhibition curve with a large enough effect in the repeat runs; inconclusive means weak or mixed curves; inactive means no such curve, though single readings can be large or run the other way.
Outcomes: active, inactive

COMPOUND | LABEL_CLASS
Cc1c(C2(c3cc(Br)c(O)c(Br)c3C)OS(=O)(=O)c3ccccc32)cc(Br)c(O)c1Br | active
O=C(C(=O)c1ccco1)c1ccco1 | inactive
CC(=O)C(C)=O | inactive
CC[C@H]1OC(=O)[C@H](C)[C@@H](O[C@H]2C[C@@](C)(OC)[C@@H](O)[C@H](C)O2)[C@H](C)[C@@H](O[C@@H]2O[C@H](C)C[C@H](N(C)C)[C@H]2O)[C@](C)(O)C[C@@H](C)/C(=N\OCOCCOC)[C@H](C)[C@@H](O)[C@]1(C)O | inactive
COC(=O)c1sccc1S(N)(=O)=O | inactive
CC(C)(C)CCCCCCOC(=O)c1ccccc1C(=O)OCCCCCCC(C)(C)C | inactive
Nc1ccc(S(=O)(=O)NCc2ccccc2)cc1 | inactive
O=c1[nH][nH]c(=O)c2cc([N+](=O)[O-])ccc12 | inactive
COc1cc(NCc2ccc3nc(N)nc(N)c3c2C)cc(OC)c1OC | active
CC(=O)Oc1cccc(O)c1 | inactive
COC(=O)CC(C(C)=O)C(=O)OC (centres undefined) | active
C/C(C=O)=C\c1ccccc1 | inactive
Cc1ccc2c(c1[N+](=O)[O-])C(=O)c1ccccc1C2=O | inactive
c1ccc2sc(SSc3nc4ccccc4s3)nc2c1 | active
CC[C@@H](CO)NCCN[C@@H](CC)CO | inactive
CC(C)(C)C(O)/C=C/c1ccc2c(c1)OCO2 (centres undefined) | active
CC(C)CC(O)CC(C)C | inactive
O=C(Oc1ccccc1)c1ccc2ccccc2c1O | active
CCC(C)(C)C(=O)O | inactive
O[C@@H](CNC[C@H](O)[C@H]1CCc2cc(F)ccc2O1)[C@@H]1CCc2cc(F)ccc2O1 | inactive
C=CCOC(=O)COCCC(C)C | inactive
CCN(CC)c1ccc(C(=C2C=CC(=[N+](CC)CC)C=C2)c2ccc(S(=O)(=O)O)cc2S(=O)(=O)[O-])cc1 | active
CC(=O)OC(C)C[N+](C)(C)C (centres undefined) | inactive
CNC1CCCN(c2c(F)cc3c(=O)c(C(=O)O)cn(C4CC4)c3c2OC)C1 (centres undefined) | inactive
